Data credit: ChEMBL document CHEMBL1857833

Item-by-item account of % inhibition
Test system: Trypanosoma brucei
Test: DNDI: Inhibition of Human African Trypanosomiasis, SBRI 427, in vitro at 2 ug.mL-1
Type: functional
Out of some 4,400 compounds screened, about 390 (8.9%) showed an effect of 50% or more. Shown is part of a subset that was picked to be rich in strong results.
Number only, in %; omit the unit.

{"compound": "O/N=C(\\NCc1cccnc1)c1cccnc1Oc1ccc(F)cc1Cl", "% inhibition [%]": 14}
{"compound": "COc1ccc(N(C)Cc2coc(-c3ccc(F)cc3)n2)cc1", "% inhibition [%]": -2}
{"compound": "Cc1ccc(-c2nc(CN3CCN(C/C=C/c4ccccc4)CC3)co2)cc1", "% inhibition [%]": 8}
{"compound": "Clc1ccc(-c2nc(CNCCN3CCCC3)co2)c(Cl)c1", "% inhibition [%]": -4}
{"compound": "FC(F)(F)c1ccc(-c2nc(CN3CCN(c4ncccn4)CC3)co2)cc1", "% inhibition [%]": 4}

Challenge: Fill blank: measured % inhibition of the compound COc1ccc(CN/C(=N\O)c2ccc(C)nc2Oc2cccc3c2CCCC3)cc1 is ____.
Response given: 1

Challenge: Fill blank: measured % inhibition of the compound CN(Cc1cccnc1)/C(=N\O)c1ccc(Oc2cc(Cl)ccc2Cl)nc1 is ____.
Response given: -14
